Biological target: arginine vasopressin V1 receptor (Rattus norvegicus, UniProt P30560)
Construct: A rat liver membrane sample was prepared; from tissue; host or cells: rat liver membranes
Sequence (P30560 whole entry): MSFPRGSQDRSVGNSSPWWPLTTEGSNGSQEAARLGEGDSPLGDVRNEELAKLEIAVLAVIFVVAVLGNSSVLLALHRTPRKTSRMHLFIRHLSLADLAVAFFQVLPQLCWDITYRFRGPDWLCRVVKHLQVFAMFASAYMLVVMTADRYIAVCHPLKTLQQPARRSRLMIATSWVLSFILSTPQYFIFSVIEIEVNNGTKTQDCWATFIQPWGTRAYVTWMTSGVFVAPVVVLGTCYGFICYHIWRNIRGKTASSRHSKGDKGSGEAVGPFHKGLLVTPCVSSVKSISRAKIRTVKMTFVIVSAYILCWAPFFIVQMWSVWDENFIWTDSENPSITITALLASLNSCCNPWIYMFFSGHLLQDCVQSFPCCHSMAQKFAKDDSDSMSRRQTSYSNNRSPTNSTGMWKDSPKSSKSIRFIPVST
Experiment: V1 receptor binding assay ([3H]-Arg-vasopressin, rat liver membrane)
Conditions: rat liver membrane, [3H]-Arg-vasopressin 2 nM, 30° C., 30 minutes, pH 8.0; read-out: Binding activity on arginine vasopressin V1 receptor (pKi) (converted)
Some compounds, each annotated with its measured Ki.
The response must be a number in nM with no trailing unit.

Observe how each entry below is paired with its result.
(Q) State the recorded Ki for this entry: CCc1nccn1-c1ccccc1C(=O)Nc1ccc(C(=O)N2CCC(F)(F)/C(=C\C(=O)NC)c3ccccc32)cc1
(A) 0.977

(Q) State the recorded Ki for this entry: Cc1cccc(-c2ccccc2C(=O)Nc2ccc(C(=O)N3CCC(F)(F)/C(=C\C(=O)N4CCN(C)CC4)c4ccccc43)cc2)c1.Cl [Example 19, hydrochloride]
(A) 2.63

(Q) State the recorded Ki for this entry: O=C(/C=C1/c2ccccc2N(C(=O)c2ccc(NC(=O)c3ccccc3-c3ccccc3)cc2)CCC1(F)F)NC1CC1
(A) 0.288

Here's the next entry for you.
(Q) State the recorded Ki for this entry: COCCNC(=O)/C=C1/c2ccccc2N(C(=O)c2ccc(NC(=O)c3ccccc3-c3ccccc3)cc2)CCC1(F)F
(A) 0.195
